system: NCI-H226 lung; experiment: NCI tumour cell line growth inhibition, 48 h

- compound: "CCN1C(=O)N(c2ccccc2)C2NN=c3s/c(=C4\\C(=O)N(C(C)C)c5ccccc54)c(=O)n3C21 (stereo not given)"
  measurement_units: "µM"
  inequality_operator: "="
  TGI: 31.4
- compound: "[N-]=[N+]=NC(CBr)c1cn([C@H]2C[C@H](O)[C@@H](CO)O2)c(=O)[nH]c1=O (stereo not given in full)"
  measurement_units: "µM"
  inequality_operator: ">"
  TGI: 100
- compound: "CC1=C[S+](c2ccccc2)c2cccc3cc4ccccc4c1c23 (stereo not given)"
  measurement_units: "µM"
  inequality_operator: "="
  TGI: 7.47
- compound: "O=C(OCc1ccc2c(Cl)cc(Cl)c(O)c2n1)c1cc2ccccc2[nH]1"
  measurement_units: "µM"
  inequality_operator: "="
  TGI: 3.07
- compound: "COc1ccc(Cn2cc3c(c2-c2cc(OC)c(OC)c(OC)c2)CCc2cnoc2-3)cc1[N+](=O)[O-]"
  measurement_units: "µM"
  inequality_operator: ">"
  TGI: 100

###

// values below are reported TGI
system: LXFL 529 NSCLC; test: NCI tumour cell line growth inhibition, 48 h

- compound: "CN(C)c1ccc(/C=N\\N2C(=O)c3ccccc3C2=O)cc1"
  TGI: "> 100 µM"
- compound: "O=C(CC(=O)C1CCOC1=O)C(=O)Nc1ccc(Cl)cc1Cl (configuration not stated)"
  TGI: "> 100 µM"
- compound: "COc1cc2c(cc1OC)C(=O)C(C1=C(SC(=N)N)C(=O)c3cc(OC)c(OC)cc31)C2 (configuration not stated)"
  TGI: "> 100 µM"
- compound: "O=C([O-])c1ccc(C(=O)[O-])cc1.O=C([O-])c1ccc(C(=O)[O-])cc1.[Mo+2].[Mo+2]"
  TGI: "> 100 µM"
- compound: "O=c1cc(-c2ccc(Cl)cc2)oc2cc(OCCCOc3ccc4c(=O)cc(-c5ccc(Cl)cc5)oc4c3)ccc12"
  TGI: "> 100 µM"
- compound: "O=C1C2c3[nH]c4ccccc4c3[C@@H]3CCCCC3C2C(=O)N1c1ccccc1 (some centres not stated)"
  TGI: "39.6 µM"
- compound: "Cn1c2c(c3ccccc31)CCN(CCCCN1CCN(c3cccc(Cl)c3)CC1)C2=O"
  TGI: "23.7 µM"

###

tested on: SK-MEL-5 melanoma; experiment: NCI tumour cell line growth inhibition, 48 h

- molecule: "O=C(OCc1ccc2c(Cl)cc(Cl)c(O)c2n1)c1cc2ccccc2[nH]1"
  system_tested: "SK-MEL-5 melanoma"
  GI50: "1330 nM"
- molecule: "C[C@H]1C(Oc2ccc(O)cc2)OC2OC3(C)CCC4[C@H](C)CCC1C24OO3 (stereo not given in full)"
  system_tested: "SK-MEL-5 melanoma"
  GI50: "13200 nM"
- molecule: "CN(CCCl)c1ccc(/C=C/C2=[N+](C)c3ccccc3C2(C)C)cc1"
  system_tested: "SK-MEL-5 melanoma"
  GI50: "532 nM"
- molecule: "O=C1/C(=C/c2ccccc2)CN(C(=O)OCc2ccccc2)C/C1=C\\c1ccccc1"
  system_tested: "SK-MEL-5 melanoma"
  GI50: "3440 nM"
- molecule: "CCOC(=O)c1cc2c(n1Cc1ccccc1)-c1oncc1CC2"
  system_tested: "SK-MEL-5 melanoma"
  GI50: "2970 nM"

###

tested on: SK-MEL-5 melanoma; assay: NCI tumour cell line growth inhibition, 48 h

- compound: "Nc1c(C(=O)Nc2ccccc2F)sc2nc3c(cc12)C(=O)CCC3"
  TGI: "> 100 µM"
- compound: "C=CC(C)CCC(C/C=C(\\C)CCC=C(C)C)C(=C)CCCC(C)C (stereo not given)"
  TGI: "> 100 µM"
- compound: "O=C(CC(=O)C1CCOC1=O)C(=O)Nc1ccc(Cl)cc1Cl (stereo not given)"
  TGI: "> 100 µM"
- compound: "C=CCN(C)CN(C)c1nc(N(C)C)nc(N(C)C)n1"
  TGI: "> 100 µM"
- compound: "COc1cc([C@@H]2c3cc4c(cc3[C@@H](NC(=O)c3cccc(F)c3)C3COC(=O)[C@@H]32)OCO4)cc(OC)c1O (stereo not given in full)"
  TGI: "12.7 µM"

###

// values below are reported TGI
tested on: SK-OV-3 ovarian; experiment: NCI tumour cell line growth inhibition, 48 h

- compound: "O=c1cc(-c2ccc(Cl)cc2)oc2cc(OCCCOc3ccc4c(=O)cc(-c5ccc(Cl)cc5)oc4c3)ccc12"
  TGI: "> 100 µM"
- compound: "CC/C(C)=C1\\OC(=O)C(C)C(O)C(Cc2cccnc2)NC(=O)C(NC(=O)c2ncccc2O)C(C)OC1=O (centres undefined)"
  TGI: "> 100 µM"
- compound: "N=C(N)SCc1cccc2c(=O)cc(-c3ccccc3)oc12"
  TGI: "30.5 µM"
- compound: "Cc1ccsc1/C=N/Nc1nncc2ccccc12"
  TGI: "> 100 µM"
- compound: "NC(=Nc1ccc(O)cc1)S(=O)O"
  TGI: "> 100 µM"
- compound: "CC(=O)[O][Hg][c]1ccccc1"
  TGI: "2.68 µM"
- compound: "O=[N+]([O-])c1ccc2ncccc2c1Cl"
  TGI: "> 100 µM"
- compound: "COc1cnc2c(c1)C(=O)c1c-2n(CCCN2CCCC2)c(=O)c2cc(F)ccc12"
  TGI: "0.986 µM"
- compound: "COC(=O)c1ccc(Cc2ccc(C(=O)OC)o2)o1"
  TGI: "> 378 µM"
- compound: "Nc1c(C(=O)Nc2ccccc2F)sc2nc3c(cc12)C(=O)CCC3"
  TGI: "> 100 µM"
- compound: "C=C1C(=O)O[C@H]2[C@H]1CC/C(COC(=O)c1ccc(C#N)cc1)=C\\CC[C@@]1(C)O[C@@H]21"
  TGI: "29.2 µM"
- compound: "COC(=O)[C@@]12OC[C@]34C([C@@H](O)C1O)[C@@]1(C)CC(=O)C(OC(=O)/C=C(/c5ccccc5)C(F)(F)F)=C(C)C1C[C@H]3OC(=O)[C@H](O)[C@H]42 (some centres undefined)"
  TGI: "> 50 µM"
- compound: "CC(=O)[O-].O=C([CH-]C(=O)c1ccccc1)c1ccccc1.O=C([CH-]C(=O)c1ccccc1)c1ccccc1.[Y+3]"
  TGI: "37.1 µM"
- compound: "CC(=O)NNc1nc(C)c(C(/C=C/c2ccc(Cl)cc2)=N/NC(=O)C[N+](C)(C)C)s1"
  TGI: "> 100 µM"
- compound: "C=CC(C)CCC(C/C=C(\\C)CCC=C(C)C)C(=C)CCCC(C)C (centres undefined)"
  TGI: "> 100 µM"
- compound: "N[C@@H]1CCCN(c2c(/C=C3\\SC(=O)NC3=O)cccc2-c2ccccc2)C1"
  TGI: "35 µM"
- compound: "COc1ccc([C@@]23OC[C@@H]4[C@@H](OC[C@@H]42)c2cc(OC)c(OC)cc23)cc1OC"
  TGI: "> 100 µM"
- compound: "CC1(C)CC(=O)c2c(nc(SSc3nc4c(c(-c5ccccc5)c3C#N)C(=O)CC(C)(C)C4)c(C#N)c2-c2ccccc2)C1"
  TGI: "> 10 µM"
- compound: "O=C1/C(=C/c2ccccc2)CN(C(=O)OCc2ccccc2)C/C1=C\\c1ccccc1"
  TGI: "40.5 µM"

###

system: NCI-H226 lung; test: NCI tumour cell line growth inhibition, 48 h
quantity_measured: TGI (µM)

- compound: "COc1ccccc1S(=O)(=O)Nc1ccc2c(c1)CN(C)C(=O)N2"
  system_tested: "NCI-H226 lung"
  inequality_operator: ">"
  experimental_result: 100
- compound: "C=C(C)[C@@H]1CC[C@]2(COC3CCCCO3)CC[C@]3(C)[C@H](CC[C@@H]4[C@@]5(C)C=C(C=O)C(=O)C(C)(C)[C@@H]5CC[C@]43C)[C@@H]12 (stereo not given in full)"
  system_tested: "NCI-H226 lung"
  inequality_operator: "="
  experimental_result: 4.43
- compound: "O=C(Oc1ccccc1Cl)c1ccccc1Nc1ccnc(C(F)(F)F)c1"
  system_tested: "NCI-H226 lung"
  inequality_operator: "="
  experimental_result: 0.915
- compound: "C=C1CN(Cc2ccccc2)[C@@H]2CCCCC[C@H](C#N)[C@H]12"
  system_tested: "NCI-H226 lung"
  inequality_operator: ">"
  experimental_result: 100
- compound: "CC#CCCN(CC#N)Cc1ccccc1"
  system_tested: "NCI-H226 lung"
  inequality_operator: ">"
  experimental_result: 100

###

tested on: SW-620 colon; assay: NCI tumour cell line growth inhibition, 48 h
// values below are reported TGI
quantity_measured: TGI

- molecule: "COC(=O)[C@@H]1C[C@H]([Se]c2ccccc2)CN1C(=O)OCc1ccccc1"
  experimental_result: "> 100 µM"
- molecule: "Cc1ccc(O)c(C(=O)CCCC(=O)c2cc(C)ccc2O)c1"
  experimental_result: "> 100 µM"
- molecule: "Cc1ccc(S(=O)(=O)N2CCCC2C(=O)O[C@H]2CC[C@H]3CC=C[C@H]32)cc1 (stereo not given in full)"
  experimental_result: "> 100 µM"
- molecule: "O=C(c1cccc(C(=O)c2ccc3c4c(cccc24)C(=O)N(c2ccccc2)C3=O)c1)c1ccc2c3c(cccc13)C(=O)N(c1ccccc1)C2=O"
  experimental_result: "> 100 µM"
- molecule: "O=c1cc(-c2ccccc2)oc2cc(OCCSCCCCCCCCCCSCCOc3ccc4c(=O)cc(-c5ccccc5)oc4c3)ccc12"
  experimental_result: "> 100 µM"
- molecule: "CSc1nc2[nH]c(=O)c(C)nc2c(=O)[nH]1"
  experimental_result: "> 100 µM"
- molecule: "Cn1ncnc1CCc1ccccc1"
  experimental_result: "> 100 µM"
- molecule: "O=c1cc(-c2ccc(Cl)cc2)oc2cc(OCCCOc3ccc4c(=O)cc(-c5ccc(Cl)cc5)oc4c3)ccc12"
  experimental_result: "> 100 µM"
- molecule: "COC(OC)[C@@H](C)[C@H](O)[C@](C)(O)C1OC(C)(C)OC(C(C)C=C(C)C)C1C (stereo not given in full)"
  experimental_result: "> 100 µM"
- molecule: "Nc1nnc(Cn2c(-c3ccccc3)nc3ccc(Br)cc3c2=O)s1"
  experimental_result: "> 100 µM"
- molecule: "O=C(O)Cn1c(=O)[nH]c(=O)c2c1ncn2Cc1ccccc1"
  experimental_result: "> 100 µM"
- molecule: "c1ccc(-c2nnc(-c3nsc4ccccc34)o2)cc1"
  experimental_result: "> 100 µM"
- molecule: "NC(CCOCCP(=O)(O)CCOCCC(N)C(=O)O)C(=O)O (stereo not given)"
  experimental_result: "> 100 µM"
- molecule: "S=c1sc2nc(Cl)nc(Cl)c2s1"
  experimental_result: "21.1 µM"
- molecule: "O=C(O)C1(Cc2cccc(Nc3nccs3)n2)CCC(Oc2cccc(Cl)c2F)CC1 (stereo not given)"
  experimental_result: "> 58.9 µM"
- molecule: "CN(C[C@@H]1COCCO1)S(=O)(=O)Nc1ccc2ccc3ncc(-c4cnn(C)c4)cc3c(=O)c2c1"
  experimental_result: "> 100 µM"
- molecule: "COc1ccc(C(=O)/C=C/c2ccc(OCC(=O)N3CCN(c4ccccc4)CC3)cc2)cc1"
  experimental_result: "> 100 µM"
- molecule: "N#CC(Cc1ccccc1Br)N(CCC1=CCCCC1)C(c1ccccc1)c1ccccc1 (stereo not given)"
  experimental_result: "> 100 µM"
- molecule: "C=C1C(=O)O[C@H]2[C@H]1CC/C(COC(=O)c1ccc(C#N)cc1)=C\\CC[C@@]1(C)O[C@@H]21"
  experimental_result: "2.88 µM"
- molecule: "O=C1C(Cl)=C(Nc2cccc(O)c2)C(=O)N1c1ccccc1Cl"
  experimental_result: "> 100 µM"
